Biological target: AR (Homo sapiens, UniProt P10275)
Construct: expressed in transfected cells; host or cells: CV1 cells
Sequence (P10275 whole entry): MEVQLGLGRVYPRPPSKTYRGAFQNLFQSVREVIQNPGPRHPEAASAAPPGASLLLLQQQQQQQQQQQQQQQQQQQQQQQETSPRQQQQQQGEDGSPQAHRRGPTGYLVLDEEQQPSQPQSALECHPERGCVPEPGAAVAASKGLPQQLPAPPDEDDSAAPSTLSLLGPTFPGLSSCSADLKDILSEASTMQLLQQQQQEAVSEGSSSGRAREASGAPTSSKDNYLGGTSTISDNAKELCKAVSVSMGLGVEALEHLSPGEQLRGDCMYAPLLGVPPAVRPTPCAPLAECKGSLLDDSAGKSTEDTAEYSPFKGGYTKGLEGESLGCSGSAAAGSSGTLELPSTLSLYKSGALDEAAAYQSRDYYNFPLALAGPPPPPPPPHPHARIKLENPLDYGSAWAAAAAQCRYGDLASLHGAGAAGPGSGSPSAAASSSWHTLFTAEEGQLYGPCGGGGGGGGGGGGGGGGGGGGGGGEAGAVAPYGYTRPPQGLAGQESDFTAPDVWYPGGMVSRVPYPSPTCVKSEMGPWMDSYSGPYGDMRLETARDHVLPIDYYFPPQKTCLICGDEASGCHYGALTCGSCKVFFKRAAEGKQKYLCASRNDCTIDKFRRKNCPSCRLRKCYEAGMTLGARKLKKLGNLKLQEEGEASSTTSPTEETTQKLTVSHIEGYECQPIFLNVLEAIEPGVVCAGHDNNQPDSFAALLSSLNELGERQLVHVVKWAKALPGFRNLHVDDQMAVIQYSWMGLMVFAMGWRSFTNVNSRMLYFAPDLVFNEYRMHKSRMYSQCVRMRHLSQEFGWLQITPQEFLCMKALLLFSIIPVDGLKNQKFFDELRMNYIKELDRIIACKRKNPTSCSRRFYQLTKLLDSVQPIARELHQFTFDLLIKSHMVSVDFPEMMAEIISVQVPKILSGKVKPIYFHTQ
Assay: Reporter gene assay, AR transcriptional (MMTV-Luc) in CV1 cells
Assay type: cell-based
Details: pcDNA-AR + MMTV-Luc, 0.1 nM R1881 plus test compound, 24 hrs, read-out: B1 = AR transcriptional IC50 (μM) in CV1 cells
Method: Reporter Gene Assay (IC50 determination, Table 2, B1-B3). CV1 cells were seeded into 96-well cell culture plates and transfected with Lipofectin. For AR transcriptional assays, the DNA mixture consisted of pcDNA-AR, MMTV-Luc (androgen responsive reporter gene), and Renilla-Luc (for assessing transfection efficiency and toxicity). […] Cells were lysed and luciferase activity was quantified using Dual Luciferase Reagent (DLR). IC50 determination was assessed using GraphPad Prism software.
Note to self: IC50 under 2 µM means True, ties and anything higher get False.

Examples with answers:
>>> class_label("CC1(C)CC(=O)C2=C(C1)Nc1ccc3ncccc3c1C2c1ccc(Cl)nc1 (centres unmarked) [Compound A71]")
"False"
>>> class_label("CC1(C)CC(=O)C2=C(C1)Nc1ccc3ncccc3c1C2c1ccc(C#N)cc1 (centres unmarked) [Compound A55]")
"False"

State whether 2 µM exceeds IC50 recorded for CC1(C)CC(=O)C2=C(C1)Nc1ccc3ccccc3c1C2c1ccc(-c2nnc(N)s2)cc1 (centres unmarked) [Compound A19] .
False

State whether 2 µM exceeds IC50 recorded for CC1(C)CC(=O)C2=C(C1)Nc1ccc3ccccc3c1C2c1ccc(C#N)cc1 (centres unmarked) [Compound A3] .
True

State whether 2 µM exceeds IC50 recorded for O=C1CCCC2=C1C(c1ccc([N+](=O)[O-])cc1)c1c(ccc3ccccc13)N2 (centres unmarked) [Compound A1] .
False
